B1: GFP aptamer (parent)
chain: GCUUCUGGACUGCGAUGGGAGCACGAAACGUCGUGGCGCAAUUGGGUGGGGAAAGUCCUUAAAAGAGGGCCACCACAGAAGC

variants of: B1; assay: HiTS-RAP; conditions: with EGFP
endpoint: log10 Kd (log10 of the value in nM)
In our notation, the value equals log10 of Kd in nM.

variant-notation: U34C C58U
log10 Kd: 1.83
--
variant-notation: G30A C74U
log10 Kd: 0.77
--
variant-notation: C32U G68A
log10 Kd: 1.78

For the variant `A26C` , what log10 Kd is on record?
0.66

For the variant `U43C` , what log10 Kd is on record?
0.68

For the variant A27G G46A , what log10 Kd is on record?
1.10

Value source: the RNAGym collection of RNA variant scans (doi:10.1038/nmeth.2970)
